- Test system: K562
- protocol_description: Growth inhibition of human K562 cells assessed as cell growth at 100 uM incubated for 48 hrs by sulforhodamine B assay relative to control
- Type: functional
- stated_conditions: K562, 48 h, read-out: Activity
Quick reference: growth at 100 µM of the listed items.
Numeric answer only, unit % assumed.

Take a look at these entries with their results.
{"columns": ["molecule", "growth at 100 µM (%)"],
 "data": [
  ["COc1cc(Cl)cc(-c2nn(-c3cccc(NC(=O)c4cccc(C(F)(F)F)c4)c3)cc2-c2ccncc2)c1", 32],
  ["COc1cc(Cl)cc(-c2nn(-c3cccc(NC(=O)Nc4ccc(Cl)c(Cl)c4)c3)cc2-c2ccncc2)c1", 3],
  ["O=C(Nc1cccc(-n2cc(-c3ccncc3)c(-c3cc(O)cc(Cl)c3)n2)c1)c1cc(C(F)(F)F)cc(C(F)(F)F)c1", 7],
  ["COc1cc(Cl)cc(-c2nn(-c3cccc(NC(=O)Nc4cc(C(F)(F)F)cc(C(F)(F)F)c4)c3)cc2-c2ccncc2)c1", -42]
]}

We next turn to a different compound, shown below.
Req: Param item = COc1cc(Cl)cc(-c2nn(-c3cccc(NC(=O)Nc4ccc(Cl)c(C(F)(F)F)c4)c3)cc2-c2ccncc2)c1 ; retrieve measured growth at 100 µM.
Resp: -51

---

- Tested on: CAKI-1
- protocol_description: Growth inhibition of human Caki1 cells incubated for 48 hrs by sulforhodamine B assay
- Format: functional, cell-based
- stated_conditions: CAKI-1, 48 h, read-out: LC50 (the source's name)
Quick reference: CC50 of the listed items.

{"columns": ["molecule", "reported"],
 "data": [
  ["COc1cc(Cl)cc(-c2nn(-c3cccc(NC(=O)c4ccc(N5CCOCC5)c(C(F)(F)F)c4)c3)cc2-c2ccncc2)c1", "> 100 µM"]
]}

Req: Param item = O=C(Nc1cccc(-n2cc(-c3ccncc3)c(-c3cc(O)cc(Cl)c3)n2)c1)c1ccc(N2CCOCC2)c(C(F)(F)F)c1 ; retrieve measured CC50.
Resp: > 100 µM

Req: Again, but for COc1cc(Cl)cc(-c2nn(-c3cccc(NC(=O)c4cccc(C(F)(F)F)c4)c3)cc2-c2ccncc2)c1
Resp: > 100 µM

Req: Again, but for COc1cc(Cl)cc(-c2nn(-c3cccc(NC(=O)Nc4ccc(Cl)c(C(F)(F)F)c4)c3)cc2-c2ccncc2)c1
Resp: > 100 µM

---

- Test system: 786-0
- protocol_description: Growth inhibition of human 786-0 cells incubated for 48 hrs by sulforhodamine B assay
- Assay type: functional, cell-based
- stated_conditions: 786-0, 48 h, read-out: pLC50 (the source's name) (converted)
reported_property: CC50

{"columns": ["molecule", "CC50"],
 "data": [
  ["O=C(Nc1cccc(-n2cc(-c3ccncc3)c(-c3cc(O)cc(Cl)c3)n2)c1)c1ccc(N2CCOCC2)c(C(F)(F)F)c1", "40.7 µM"],
  ["COc1cc(Cl)cc(-c2nn(-c3cccc(NC(=O)c4ccc(N5CCOCC5)c(C(F)(F)F)c4)c3)cc2-c2ccncc2)c1", "> 100 µM"],
  ["COc1cc(Cl)cc(-c2nn(-c3cccc(NC(=O)Nc4cccc(C(F)(F)F)c4)c3)cc2-c2ccncc2)c1", "67.6 µM"]
]}

Req: Lab note: need CC50 for O=C(Nc1cccc(-n2cc(-c3ccncc3)c(-c3cc(O)cc(Cl)c3)n2)c1)Nc1ccc(Cl)c(C(F)(F)F)c1 on 786-0, anyone have it?
Resp: 89.1 µM
